# maps each entry to its IC50
- assay target: C-X-C chemokine receptor type 6 (Homo sapiens)
- protocol notes: potency against CXCR6 with APJ panel – cell-based, beta-arrestin, DiscoveRx, uHTS hits, dose response (AID 624129)
- applied conditions: CXCR6 beta-arrestin (DiscoveRx) antagonist cell assay, CXCR6, dose range 1, mean IC50 across replicates
Your answer should be a plain number; it is taken to be in µM.

Input line: # get_value(readout='IC50', item= `C/C(=N\Nc1nc2ccccc2[nH]1)c1ccccn1` )
Output line: 3.33

Input line: # get_value(readout='IC50', item= `O=C(N/N=C(\c1ccccc1)c1cccnc1)c1cccc(F)c1` )
Output line: 4.01

In the following, a different compound is considered.
Input line: # get_value(readout='IC50', item= COc1ccc(C2CC(c3c(O)n(CCc4ccccc4)c(=O)[nH]c3=O)=NN2)cc1OC (stereo not drawn) )
Output line: 14.2

====

- assay target: UniProt:P35414
- protocol notes: potency against CXCR6 with APJ panel – cell-based, beta-arrestin, DiscoveRx, uHTS hits, dose response (AID 624129)
- applied conditions: CXCR6 beta-arrestin (DiscoveRx) antagonist cell assay, APJ, run 2, dose range 1
# maps each entry to its IC50

// known answers, use as guide
Input line: # get_value(readout='IC50', item= `CC(=O)OCCCNc1cc(Sc2ccc(Cl)cc2)c2nonc2c1[N+](=O)[O-]` )
Output line: 4.27 µM

Input line: # get_value(readout='IC50', item= `O=C(Nc1cccc(C(F)(F)F)c1)Oc1ccc(Cl)c2cccnc12` )
Output line: > 80 µM

Input line: # get_value(readout='IC50', item= `COC(=O)[C@@H]1[C@@H](C#N)C2(c3ccccc3-c3ccccc32)N(c2ccc(Cl)cc2)N1C#N` )
Output line: > 80 µM

Further cases:
Input line: # get_value(readout='IC50', item= `CS(=O)(=O)c1ncc(Cl)c(C(=O)Nc2ccc3ccccc3c2)n1` )
Output line: 60.1 µM

Input line: # get_value(readout='IC50', item= `COC(CNC(=O)c1cc(C(=O)c2c(-c3c(Cl)cccc3Cl)noc2C)c[nH]1)OC` )
Output line: 10.7 µM

Input line: # get_value(readout='IC50', item= `CCCOc1cccc(-c2cc(C(=O)N/N=C/c3ccccn3)c3ccccc3n2)c1` )
Output line: 9.25 µM

====

# maps each entry to its IC50
- assay target: UniProtKB O00574
- Sequence (O00574 whole entry, looked up): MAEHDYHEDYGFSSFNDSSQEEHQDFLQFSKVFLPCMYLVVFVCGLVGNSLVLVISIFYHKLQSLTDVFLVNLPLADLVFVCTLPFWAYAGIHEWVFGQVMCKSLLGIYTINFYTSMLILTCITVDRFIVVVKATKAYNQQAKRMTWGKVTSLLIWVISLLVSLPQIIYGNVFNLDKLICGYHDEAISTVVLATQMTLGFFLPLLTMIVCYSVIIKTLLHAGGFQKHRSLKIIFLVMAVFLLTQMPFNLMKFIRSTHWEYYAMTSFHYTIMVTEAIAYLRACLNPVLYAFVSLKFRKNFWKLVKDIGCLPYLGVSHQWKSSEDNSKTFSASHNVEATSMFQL
- protocol notes: potency against CXCR6 with APJ panel – cell-based, beta-arrestin, DiscoveRx, uHTS hits, dose response (AID 624129)
- applied conditions: CXCR6 beta-arrestin (DiscoveRx) antagonist cell assay, CXCR6, run 2, dose range 2
Number first, unit second.

// known answers, use as guide
Input line: # get_value(readout='IC50', item= `Fc1ccc(Sc2nc(-c3ccccc3)nnc2C(F)(F)F)cc1` )
Output line: 8.28 µM

Input line: # get_value(readout='IC50', item= `Cc1cc(O)c(-c2cc(O)c(C)cc2O)cc1O` )
Output line: 14.4 µM

Input line: # get_value(readout='IC50', item= `Cc1[nH]n2c(=O)cc(-c3ccc([N+](=O)[O-])cc3)nc2c1-c1ccccc1` )
Output line: 15.3 µM

Input line: # get_value(readout='IC50', item= `CN(C)CCCN(C(=O)CCS(=O)(=O)c1ccccc1)c1nc2cc3c(cc2s1)OCO3` )
Output line: 15.5 µM

Input line: # get_value(readout='IC50', item= `CCN(c1ccccc1)S(=O)(=O)c1ccc(NC(=O)c2nc(S(C)(=O)=O)ncc2Cl)cc1` )
Output line: 10.8 µM

Further cases:
Input line: # get_value(readout='IC50', item= `CCCCC(=O)NC(=S)NNC(=O)c1ccc(OC)cc1` )
Output line: 12.9 µM

Input line: # get_value(readout='IC50', item= `CCCCCCCCn1sccc1=O` )
Output line: 10.2 µM

Input line: # get_value(readout='IC50', item= `COC(=O)c1cc([N+](=O)[O-])c(-n2cncn2)c([N+](=O)[O-])c1` )
Output line: 18.4 µM

Input line: # get_value(readout='IC50', item= `Cc1cc(C)nc(S/C=C/C(=O)c2ccccc2)n1` )
Output line: 27.5 µM

Input line: # get_value(readout='IC50', item= C=C1C(=O)c2sccc2C(c2ccc(OC)c(OC)c2)C1COC(C)=O (configuration not stated) )
Output line: 5.7 µM

Input line: # get_value(readout='IC50', item= `COc1ccc(CNC(=O)c2nc(S(=O)(=O)Cc3ccccc3)ncc2Cl)cc1` )
Output line: 20.7 µM

Input line: # get_value(readout='IC50', item= O=C1C(Cc2ccccc2)Nc2ncnc(N3CCN(c4ccccc4)CC3)c2N1Cc1ccc(Br)cc1 (configuration not stated) )
Output line: 1.13 µM

Input line: # get_value(readout='IC50', item= `CCOC(=O)c1c(C)oc2c1c(C=NCc1ccccn1)c(O)c1ccccc12` )
Output line: 1.9 µM

Input line: # get_value(readout='IC50', item= `O=C(C(=Cc1ccc(F)cc1)C(=O)c1ccccc1)c1ccccc1` )
Output line: 15.5 µM
